System: SK-OV-3 ovarian
experiment: NCI tumour cell line growth inhibition, 48 h
readout: TGI

Take a look at these entries with their results.
COc1ccc(N2C(=O)C3C=CC(n4[nH]c(=O)n(Cc5ccccc5)c4=O)CC3C2=O)cc1 (stereo not drawn)	> 100 µM
CCCCCCn1c2c(c3c(O)cccc31)C(=O)c1ccccc1-2	> 100 µM
NCCN(CCN)/[N+]([O-])=N/O	> 100 µM
C[C@]12CCC(=O)C=C1CC[C@@H]1C2CC[C@@]2(C)C1CC[C@@H]2OC(=O)C12OC1CCC2=O (stereo partly drawn)	> 100 µM

Kindly note the recorded TGI for "c1ccc(Sc2nc(Sc3ccccc3)nc(Sc3ccccc3)n2)cc1" , which is > 100 µM

Reported TGI of "CCOC(=O)Cn1c(=O)[nH]c(=O)c2[nH]cnc21" : > 100 µM

Lab book: TGI of O=C1NC2OC(CO)C(O)C(O)C2O1 (stereo not drawn) noted as > 100 µM

====

System: MALME-3M melanoma
experiment: NCI tumour cell line growth inhibition, 48 h
readout: TGI

Clc1ccc(Nc2nnc(CNc3ccc(-c4nnc(Nc5ccc(Cl)cc5)o4)cc3)o2)cc1	28.5 µM
COc1ccc(OC)c(-c2cc(=O)c3cc4c(cc3[nH]2)OCO4)c1	> 100 µM
COc1cc(C2c3cc4c(cc3OC(NNc3ccccc3)C2C)OCO4)cc(OC)c1O (centres undefined)	11 µM
N#Cc1c(O)c(C=O)c(=O)n2c1[nH]c1ccccc12	> 100 µM
O=C(NCCCc1cn[nH]c(=O)n1)c1cccc2nc3ccccc3nc12	> 100 µM
CC(C)(N)C(=O)N[C@@H]1C(=O)N2[C@@H]1SC(C)(C)[C@@H]2C(=O)O	> 100 µM

// below: TGI requested for another compound
Per the records, this compound ( Cc1ccnc(NC(c2ccccc2)c2ccc3cccnc3c2O)c1 (centres undefined) ) has TGI equal to 34.9 µM

====

Tested on: TK-10 renal
experiment: NCI tumour cell line growth inhibition, 48 h; in the data active = GI50 below about 0.43 µM; inactive = the rest
Output constraint: value belongs to active, inactive

C=CCCCC(O)c1ccc(C(O)c2cnc3ccccc3c2)o1 (stereo unspecified)	inactive
COc1ccc(Nc2ncccc2C(=O)NCc2cn(Cc3cccc(Oc4ccccc4)c3)nn2)c(OC)c1	inactive
Nc1nc(Cl)nc2c1ncn2C1OC(CO)C(O)C1O (stereo unspecified)	inactive

// outcome(item) with item = "O=C(Nc1ccc(Cl)cc1)c1cc2ccccc2cc1OP(=O)(O)O" inactive

Tell me the assay call for "Oc1[nH]c2ccccc2c1/C=c1/ccc2c(c1)N=C(c1cc(F)cc(F)c1)N=2" please. inactive

====

Test system: NCI-H460 lung
experiment: NCI tumour cell line growth inhibition, 48 h
readout: TGI

CCC1OC2C(CC=C(C)C)=C3OC(C)(O)C(C)(CC)C(=O)C3=C3OC(=O)C=C1C32 (configuration not stated)	92.5 µM
COc1cc(C2c3cc4c(cc3OC(NNc3ccccc3)C2C)OCO4)cc(OC)c1O (configuration not stated)	17.7 µM
CCOC(=O)c1cc([N+](=O)[O-])cc([N+](=O)[O-])c1Sc1ncnc2nc[nH]c12	33.9 µM
CC(C)(/C=N/O)/[N+]([O-])=C/c1ccccc1	> 100 µM
Oc1[nH]c2ccccc2c1/C=c1/ccc2c(c1)N=C(c1cc(F)cc(F)c1)N=2	22.8 µM
CCN(CC)CCNC(=O)C(Cl)=C1C(Cl)=C(Cl)C(Cl)=C1Cl	11.1 µM

Reported NCI-H460 lung TGI for item CC(=O)OC12OC(C)(C3C(=O)N(c4ccccc4)C(=O)C31)N(c1ccccc1)C2=O (configuration not stated) was > 100 µM

Short answer on NCI-H460 lung for CCOC(=O)C(NC(=O)c1ccccc1)(Nc1ccc(S(=O)(=O)Nc2ccc(OC)nn2)cc1)C(F)(F)F (configuration not stated) , TGI: > 100 µM

Field TGI (NCI-H460 lung), entry "CC/C(=C(/CC)c1ccc(O)cc1)c1ccc(O)cc1" : 15.2 µM

Value sought: TGI, system NCI-H460 lung, item CC(O)c1ccc(C(O)/C(=N\NC(=O)c2ccncc2)c2nc3ccc([N+](=O)[O-])cc3[nH]c2=O)cc1 (configuration not stated) . Result: > 100 µM

====

Test system: A549 NSCLC
experiment: NCI tumour cell line growth inhibition, 48 h
readout: TGI (µM)
Write down the numeric answer in µM and omit the unit.

# annotated cases, reported TGI shown
Oc1[nH]c2ccccc2c1/C=c1/ccc2c(c1)N=C(c1cc(F)cc(F)c1)N=2	23.7
CC/C(=C(/CC)c1ccc(O)cc1)c1ccc(O)cc1	20.5
Cc1ccnc(NC(c2ccccc2)c2ccc3cccnc3c2O)c1 (stereo unspecified)	45.1
COC1=CC(c2ccc[nH]2)=N/C1=C\c1[nH]c(C)c(C)c1CCC(=O)OCc1ccccc1	11.1
CN1C(=O)[C@@H]2[C@@H]3c4ccccc4N[C@@H]3c3[nH]c4ccccc4c3[C@@H]2C1=O	65.1
C[C@H]1CCC2C(CN3CCCCC3)C(=O)OC2[C@]2(C)C(=O)CC(N3CCCCC3)C12O (stereo partly specified)	90.8
Cn1c(=O)c(-c2c(Cl)cccc2Cl)cc2cnc(Nc3ccc(I)cc3)nc21	19.4
Cc1nc2cc(Nc3nc(Nc4ccc(F)cc4)nc(N4CCCC4)n3)ccc2n1Cc1ccccc1	4.63

Query "O=C1c2ccccc2-c2ccccc2C1(Cl)Cl" yields TGI of 3.21

====

Test system: NCI-H226 lung
experiment: NCI tumour cell line growth inhibition, 48 h
readout: TGI

CC(=O)Nc1ccc(C(=O)n2[nH]c(C)c(/C=C3\C(=O)C=Cc4ccccc43)c2=O)cc1	> 100 µM
COC(=O)C1Cc2c([nH]c3ccccc23)-c2[nH]c3ccccc3c2CC(NC(C)=O)C(=O)N2CCCC2C(=O)N1 (stereo not drawn)	18.3 µM
CCOC(=O)c1cc([N+](=O)[O-])cc([N+](=O)[O-])c1Sc1ncnc2nc[nH]c12	> 100 µM
Nc1nc(-c2ccc3ccccc3c2)cc(-c2cc(-c3ccc4ccccc4c3)nc(N)n2)n1	> 100 µM
COC(=O)C1=Cc2cn(S(=O)(=O)c3ccc(C)cc3)c3cccc(c23)C(C=C(C)C)N1C(C)=O (stereo not drawn)	> 100 µM

TGI recorded for this compound, CCN(CC)CC(O)c1cc(-c2ccc(Cl)cc2)nc2cc(Cl)ccc12 (stereo not drawn) , is 7.15 µM

Summary for this compound, "C=C(C)[C@@H]1CCC2=C(CC[C@]3(C)[C@@H]([C@@H](CCC=C(C)C)C(=O)O)[C@H](O)C[C@@]23C)[C@@]1(C)CCC(=O)O" : TGI is > 100 µM

// TGI lookup, compound = COc1cc(C2c3cc4c(cc3OC(NNc3ccccc3)C2C)OCO4)cc(OC)c1O (stereo not drawn) , result: 14.6 µM

====

Test system: IGROV1 ovarian
experiment: NCI tumour cell line growth inhibition, 48 h
Attribute: GI50

Below, 3 molecules whose answers are already recorded.
COc1cccc(/C=C2\CCc3ccccc3C2=O)c1	12.5 µM
O=[N+]([O-])c1cccc([I+]c2ccccc2)c1	5.29 µM
COc1cc(/C=C/c2ccc(S(N)(=O)=O)cc2)cc(OC)c1	23.1 µM

For reference, reported GI50 for "Clc1ccc(Nc2ncnc3c2sc2ncccc23)c(Cl)c1" stands at > 100 µM

Kindly note the recorded GI50 for "C=C(C)[C@@H]1CC[C@]2(C(=O)N3CCN(C)CC3)CC[C@]3(C)[C@H](CC[C@@H]4[C@@]5(C)CC[C@H](O)C(C)(C)[C@@H]5CC[C@]43C)[C@@H]12" , which is 1.93 µM

Sample Cc1ccnc(NC(c2ccccc2)c2ccc3cccnc3c2O)c1 (configuration not stated) ; GI50 observed: 2.33 µM

Record Nc1nc(Cl)nc2c1ncn2C1OC(CO)C(O)C1O (configuration not stated) . Reported GI50: > 100 µM

====

System: HCT-116 colon
experiment: NCI tumour cell line growth inhibition, 48 h
Criterion met means recorded TGI is 2 µM or above; Criterion not met means it is below 2 µM.

Cc1cc(Cl)ccc1Nc1nc2c(s1)C(=O)c1ccccc1C2=O	Criterion met
COc1cc(OC)c(/C=C/C(=O)c2c(O)cc(OC)c(C3CCN(C)CC3)c2OC)c(OC)c1	Criterion not met
CC(=O)OC12OC(C)(C3C(=O)N(c4ccccc4)C(=O)C31)N(c1ccccc1)C2=O (stereo not given)	Criterion met
NNC(=S)NN/C=C(\C=Nc1ccccc1)[N+](=O)[O-]	Criterion met
O=C1c2ccccc2C(=O)c2c(NCC3CO3)cccc21 (stereo not given)	Criterion met
COc1cc(/C=C/C2=NN(c3cccc(S(=O)(=O)O)c3)C3(C2)SCC(=O)N3c2nc3ccccc3s2)cc(OC)c1OC (stereo not given)	Criterion met
O=Cc1cn(S(=O)(=O)c2ccccc2)c2ccccc12	Criterion met
CN(C)CCCN=c1c2ccccc2n(C)c2[nH]c(=O)n(C)c(=O)c12	Criterion met

Exam item: decide whether the reported TGI for "Cn1c(=O)c(-c2c(Cl)cccc2Cl)cc2cnc(Nc3ccc(I)cc3)nc21" is at least 2 µM. Criterion not met

Item "CCN(CCN(CC)C(=O)NC)C(=O)NC" with TGI of 2 µM or above? Criterion met
